Tested on: Ixodes ricinus
PROTOCOL SUMMARY: Oral acaricidal test on ticks in membrane feeding wells with treated blood
Assay type: in vivo
APPLIED CONDITIONS: Ixodes ricinus, po; adult ticks, 100 ppm, 48 h; read-out: average percentage of adult tick mortality (moribund or dead adult ticks)
Experimental: A laboratory study was conducted to determine the oral acaricidal properties of three compounds according to the invention (SN0305, SN0306 and SN0307) against Ixodes ricinus. Each compound was tested at 1, 10 and 100 ppm, and compared to a negative control corresponding to solvent alone (0.1% DMSO). Amitraz at 100 ppm was used as a positive control. The Ixodes ricinus ticks (nymphs and adults) were placed for 24 hours on a membrane in feeding wells containing blood mixed with the tested compounds. […]
Structures can show the parent of a compound that is named as a salt.
So I've got a bunch of compounds here, and I need their mortality at 100 ppm values.
Report as a plain number; the unit % is understood.

Prompt line: Give mortality at 100 ppm (Ixodes ricinus) of the following compound: Cc1cccc(C(C)c2cnc[nH]2)c1C (racemic) [Medetomidine hydrochloride]
Response line: 84.7

Prompt line: Give mortality at 100 ppm (Ixodes ricinus) of the following compound: Cc1cccc(Cc2cnc[nH]2)c1C [Detomidine hydrochloride]
Response line: 57.4

Prompt line: Give mortality at 100 ppm (Ixodes ricinus) of the following compound: Cc1cccc([C@H](C)c2c[nH]cn2)c1C [Dexmedetomidine hydrochloride]
Response line: 76.4

Prompt line: Give mortality at 100 ppm (Ixodes ricinus) of the following compound: Cc1ccc(/N=C/N(C)/C=N/c2ccc(C)cc2C)c(C)c1 [Amitraz]
Response line: 58.9
